ASSAYED SYSTEM: T1, human parathyroid hormone receptor (PTHR) (human, UniProt Q03431 27-593)
T1 construct: Assayed in membranes of HKRK-B7 cells or of transiently transfected COS-7 cells, or on intact HKRK-B7/HKRK-B64/COS-7 cells; RG = co-transfected with negative-dominant Galpha-s; R0 = receptor alone plus GTPgammaS; also called hPTHR; human PTH receptor
T1 sequence: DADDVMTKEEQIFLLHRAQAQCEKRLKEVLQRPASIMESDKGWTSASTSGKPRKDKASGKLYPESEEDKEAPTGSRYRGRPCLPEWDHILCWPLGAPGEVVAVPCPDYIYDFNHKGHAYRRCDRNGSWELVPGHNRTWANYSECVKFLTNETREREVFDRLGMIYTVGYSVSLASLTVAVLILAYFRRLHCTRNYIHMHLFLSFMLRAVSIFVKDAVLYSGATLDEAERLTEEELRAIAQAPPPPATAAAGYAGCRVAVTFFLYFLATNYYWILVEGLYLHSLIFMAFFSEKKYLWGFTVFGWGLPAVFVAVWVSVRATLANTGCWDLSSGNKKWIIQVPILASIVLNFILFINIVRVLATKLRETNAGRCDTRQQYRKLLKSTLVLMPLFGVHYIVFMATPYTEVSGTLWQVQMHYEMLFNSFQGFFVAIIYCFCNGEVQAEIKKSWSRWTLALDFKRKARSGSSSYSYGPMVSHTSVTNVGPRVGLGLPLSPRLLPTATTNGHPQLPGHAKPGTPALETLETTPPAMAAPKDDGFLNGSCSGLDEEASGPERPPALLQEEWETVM
ASSAY REMARKS: ratio of R0 IC50 to RG IC50, hPTHR
Ends that are not written are not given here.
Here, each record is paired with measured R0/RG selectivity data.
QUANTITY MEASURED: R0/RG selectivity

>>> measured_value("AVSEHQLLHDKGKSIQDERRRAFLLKLIAE-NH2 (also called EALK-PTHrP(1-30)) [E18,A22,L25,K26-PTHrP(1-30)NH]")
11200
>>> measured_value("AVSEHQLLHDKGKSIQDERRRAFLLKLI-NH2 (also called EALK-PTHrP(1-28)) [E18,A22,L25,K26-PTHrP(1-28)NH]")
18300
>>> measured_value("AVSEHQLLHDKGKSIQDERRRAFLHKLI-NH2 [E18,A22,K26-PTHrP(1-28)NH]")
38300
>>> measured_value("AVSEHQLLHDKGKSIQDARRRAFLHKLI-NH2 [A18,22,K26-PTHrP(1-28)NH]")
18100
>>> measured_value("AVSEHQLLHDKGKSIQDARRRAFLLKLI-NH2 (not fully specified, also called [Ala^18,22,Leu^25,Lys^26]-PTHrP(1-28); AALK-PTHrP(1-28)) [A18,22,L25,K26-PTHrP(1-28)NH]")
6970
